# target_desc: human CYP2B6, CYP2B6 (gene 1555) (UniProt P20813)
# Sequence (P20813 whole entry, looked up): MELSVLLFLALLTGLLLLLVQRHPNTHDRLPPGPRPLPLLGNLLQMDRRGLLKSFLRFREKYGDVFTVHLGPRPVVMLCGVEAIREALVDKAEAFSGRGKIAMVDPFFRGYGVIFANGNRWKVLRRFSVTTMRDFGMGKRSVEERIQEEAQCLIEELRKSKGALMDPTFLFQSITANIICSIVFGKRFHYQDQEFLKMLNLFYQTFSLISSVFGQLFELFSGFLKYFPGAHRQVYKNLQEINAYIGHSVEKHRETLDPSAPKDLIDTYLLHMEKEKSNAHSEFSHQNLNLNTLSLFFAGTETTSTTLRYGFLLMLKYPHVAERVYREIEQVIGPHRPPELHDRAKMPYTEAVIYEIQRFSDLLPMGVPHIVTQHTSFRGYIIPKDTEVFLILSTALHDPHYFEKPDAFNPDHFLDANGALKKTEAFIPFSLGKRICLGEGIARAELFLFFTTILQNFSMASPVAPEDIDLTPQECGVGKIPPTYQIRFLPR
# experiment_description: NVS_ADME_hCYP2B6: NovaScreen (NVS) CYP450-related Enzyme Activity (ADME) Assay for human CYP2B6 (AID 2283101)
Inconclusive results are not listed. Calls of active or inactive are those of the source. Rule for the calls: active = hit-call score of the fitted dose curve at least 0.9, where 1 is the maximum; inconclusive = response in the unintended direction; inactive = score below 0.9.
Hi there, use one of these labels in your reply, thanks! T for active, F for inactive

# chemical_smiles, group
rows = [
    ("CC(C)(c1ccccc1)c1ccc(O)cc1", "T"),
]

Enquiry: Entry ClC1=C(Cl)[C@]2(Cl)[C@@H]3[C@@H](Cl)[C@H]4O[C@H]4[C@@H]3C1(Cl)C2(Cl)Cl : call = ?
Return: T

Enquiry: Entry ClC(Cl)=C(c1ccc(Cl)cc1)c1ccc(Cl)cc1 : call = ?
Return: F

Enquiry: Entry Oc1c(Cl)c(Cl)c(Cl)c(Cl)c1Cl : call = ?
Return: F

----------
# target_desc: Nucleoli Translocation, AR (gene 367)
# experiment_description: UPITT_HCI_U2OS_AR_TIF2_Nucleoli_Antagonist: University of Pittsburgh U2OS Androgen Receptor-Transcriptional Intermediary Factor 2 (AR-TIF2) Antagonism High Content Imaging Assay for Nucleoli Translocation (AID 2283997)
# Excerpt: UPITT_AR_TIF2_PPIB is a cell-based, high-content imaging assay that uses U2OS, a human osteosarcoma cell line, expressing a human androgen receptor fused to red fluorescent protein and the coactivator TIF2 fused to green fluorescent protein. UPITT_HCI_U2OS_AR_TIF2_Nucleoli_Antagonist is one of four assay components measured from the UPITT_AR_TIF2_PPIB assay. […]
Records with an inconclusive call do not appear. Activity calls are given as the source filed them. How the source made its calls: active means hit-call score of the fitted dose curve at least 0.9, where 1 is the maximum; inconclusive means response in the unintended direction; inactive means score below 0.9.
Hi there, use one of these labels in your reply, thanks! active, inactive

# count of solved cases: 3
# chemical_smiles, group
rows = [
    ("CCCCCCCCOC(=O)c1ccccc1C(=O)OCCCCCCCC", "inactive"),
    ("c1ccc(-c2ccccc2)cc1", "inactive"),
    ("C=CC(=O)NCNC(=O)C=C", "inactive"),
]

Enquiry: Entry CC1=C2C[C@H]3[C@@H](CC=C4C[C@@H](O)CC[C@@]43C)[C@@H]2CC[C@]12O[C@@H]1C[C@H](C)CN[C@H]1[C@H]2C : call = ?
Return: inactive

Enquiry: Entry O=C(NC(=O)c1c(F)cccc1F)Nc1cc(Cl)c(OC(F)(F)C(F)F)c(Cl)c1 : call = ?
Return: inactive

Enquiry: Entry CCOC(=O)C(O)(c1ccc(Cl)cc1)c1ccc(Cl)cc1 : call = ?
Return: active

----------
# Test system: frog Estrogen Receptor (ER), gene 398734
# experiment_description: ATG_frER1_XSP2: Attagene TRANS-FACTORIAL Multi-Species (XSP2) HepG2 Assay for frog Estrogen Receptor (ER) (AID 2283821);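 note: hits raise reporter mRNA above DMSO baseline so potency means agonist or activator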
Results filed as inconclusive are left out. The source made the active and inactive calls. How the source made its calls: active means hit-call score of the fitted dose curve at least 0.9, where 1 is the maximum; inconclusive means response in the unintended direction; inactive means score below 0.9.
Hi there, use one of these labels in your reply, thanks! class 1 = active, class 0 = inactive

# count of solved cases: 3
# chemical_smiles, group
rows = [
    ("Cc1cc(-c2ccc(N)c(C)c2)ccc1N", "class 0"),
    ("ClC(Cl)=C(c1ccc(Cl)cc1)c1ccc(Cl)cc1", "class 0"),
    ("CCOC(=O)C(O)(c1ccc(Cl)cc1)c1ccc(Cl)cc1", "class 0"),
]

Pending molecule:
Enquiry: Entry C[C@]12CCC(=O)C=C1CC[C@@H]1[C@@H]2CC[C@@]2(C)[C@H]1CC[C@]2(C)O : call = ?
Return: class 1

----------
# System: 5-hydroxytryptamine receptor 2C (pig)
# experiment_description: NVS_GPCR_p5HT2C: NovaScreen (NVS) G Protein-Coupled Receptor Assay for pig Serotonin, 5-Hydroxytryptamine Receptor 2C (5HT2C) (AID 2283288)
# Method: NVS_GPCR_p5HT2C is a biochemical, single-readout assay that uses extracted gene-proteins from Pig choroid plexus membranes in a tissue-based cell-free assay. Measurements were taken 1 hour after chemical dosing in a 48-well plate.NVS_GPCR_p5HT2C is one of one assay component(s) measured or calculated from the NVS_GPCR_p5HT2C assay. […] This assay endpoint, NVS_GPCR_p5HT2C, was analyzed in the positive analysis fitting direction relative to DMSO as the negative control and baseline of activity. […]
Results filed as inconclusive are left out. The source made the active and inactive calls. The calls were made as follows: active = hit-call score of the fitted dose curve at least 0.9, where 1 is the maximum; inconclusive = response in the unintended direction; inactive = score below 0.9.
Hi there, use one of these labels in your reply, thanks! label 1 = active, label 0 = inactive

Enquiry: Entry CCC(C)(c1ccc(O)cc1)c1ccc(O)cc1 : call = ?
Return: label 1

Enquiry: Entry COc1ccc(O)c(C(C)(C)C)c1 : call = ?
Return: label 1

Enquiry: Entry Oc1ccc(Cl)cc1Cl : call = ?
Return: label 0

Enquiry: Entry Cc1ccc(O)c(C)c1 : call = ?
Return: label 0

Enquiry: Entry Cc1cc(O)ccc1Cl : call = ?
Return: label 1

Enquiry: Entry CCCCCCCCCC[N+](C)(C)CCCCCCCCCC : call = ?
Return: label 1

Enquiry: Entry CC(C)(c1ccccc1)c1ccc(O)cc1 : call = ?
Return: label 1

----------
# experiment_description: CCTE_Mundy_HCI_Cortical_Synap_Neur_Matur_NeuriteSpotCountPerNeuron: CCTE's Synaptogenesis and Neurite Maturation Assay in rat cortical cells for Neurite Spot Count per Neuron Count, Mundy Lab (AID 2284215)
Activity calls are given as the source filed them. Rule for the calls: active = hit-call score of the fitted dose curve at least 0.9, where 1 is the maximum; inactive = score below 0.9.
Hi there, use one of these labels in your reply, thanks! active, inactive

# chemical_smiles, group
records = [
    ("O=S(=O)(O)C(F)(F)C(F)(F)C(F)(F)C(F)(F)F", "inactive"),
    ("O=S(=O)(O)C(F)(F)C(F)(F)C(F)(F)C(F)(F)C(F)(F)C(F)(F)F", "inactive"),
    ("ClC1=C(Cl)[C@]2(Cl)[C@@H]3[C@@H]4C[C@@H]([C@H]5O[C@@H]45)[C@@H]3[C@@]1(Cl)C2(Cl)Cl", "active"),
]

Pending compound:
Enquiry: Entry C=CC(N)=O : call = ?
Return: inactive

----------
# experiment_description: CCTE_Shafer_MEA_acute_per_network_burst_spike_number_std: CCTE's Neural Acute Assay for Standard Deviation of Number of Spikes in a Network Burst, Shafer Lab (AID 2284020);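 note: fitted for decrease in spike-number SD versus DMSO so actives lower it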
Activity calls are given as the source filed them. How the source made its calls: active means hit-call score of the fitted dose curve at least 0.9, where 1 is the maximum; inactive means score below 0.9.
recorded_metric: AC50

# compound, AC50
records = [
    ("ClC1=C(Cl)[C@]2(Cl)[C@@H]3[C@@H](Cl)[C@H]4O[C@H]4[C@@H]3C1(Cl)C2(Cl)Cl", "0.248 µM (active)"),
    ("O=C(N[C@H]1CN2CCC1CC2)c1cc2ccoc2cn1", "inactive"),
    ("CO/C=C(/C(=O)OC)c1ccccc1COc1cccc(C(F)(F)F)n1", "inactive"),
    ("CCCCCCCCCC[N+](C)(C)CCCCCCCCCC", "5.37 µM (active)"),
    ("O=C(O)C(F)(F)C(F)(F)C(F)(F)C(F)(F)C(F)(F)F", "inactive"),
]

Lab book: AC50 of CCSC(=O)N(CC)C1CCCCC1 noted as 8.39 µM (active)

Lab book: AC50 of Oc1ccc(C(c2ccc(O)cc2)(C(F)(F)F)C(F)(F)F)cc1 noted as inactive

Lab book: AC50 of ClC1=C(Cl)[C@]2(Cl)[C@@H]3[C@H]4C[C@H]([C@@H]5O[C@H]45)[C@@H]3[C@@]1(Cl)C2(Cl)Cl noted as inactive

Lab book: AC50 of CCC(C)(CC)c1cc(NC(=O)c2c(OC)cccc2OC)on1 noted as inactive

Lab book: AC50 of CCC(C)c1cc([N+](=O)[O-])cc([N+](=O)[O-])c1O (stereo unspecified) noted as inactive

Lab book: AC50 of c1ccc(-c2ccccc2)cc1 noted as inactive

----------
# experiment_description: TOX21_p53_BLA_p5_viability: Viability Assessment in the Tox21 HCT-116 p53 Agonism Beta-lactamase Assay, Phase 5 (AID 2283600)
Results filed as inconclusive are left out. Calls of active or inactive are those of the source. Rule for the calls: active = hit-call score of the fitted dose curve at least 0.9, where 1 is the maximum; inconclusive = response in the unintended direction; inactive = score below 0.9.
Hi there, use one of these labels in your reply, thanks! active, inactive

# count of solved cases: 8
# chemical_smiles, group
records = [
    ("O=C(O)C(F)(F)C(F)(F)C(F)(F)C(F)(F)C(F)(F)C(F)(F)C(F)(F)C(F)(F)F", "inactive"),
    ("CC(C)(O)C(=O)Nc1ccc([N+](=O)[O-])c(C(F)(F)F)c1", "inactive"),
    ("NS(=O)(=O)C(F)(F)C(F)(F)C(F)(F)C(F)(F)C(F)(F)C(F)(F)C(F)(F)C(F)(F)F", "active"),
    ("CC1=C2C[C@H]3[C@@H](CC=C4C[C@@H](O)CC[C@@]43C)[C@@H]2CC[C@]12O[C@@H]1C[C@H](C)CN[C@H]1[C@H]2C", "inactive"),
    ("CC#Cc1cc(C)nc(Nc2ccccc2)n1", "inactive"),
    ("ClC1=C(Cl)[C@]2(Cl)[C@@H]3[C@@H](Cl)[C@H]4O[C@H]4[C@@H]3C1(Cl)C2(Cl)Cl", "inactive"),
    ("Oc1ccc(Cl)cc1Cl", "inactive"),
    ("C[C@]12CCC(=O)C=C1CC[C@@H]1[C@@H]2CC[C@]2(C)C(=O)CC[C@@H]12", "inactive"),
]

Enquiry: Entry CCOCCOC(C)=O : call = ?
Return: inactive

Enquiry: Entry ClC1=C(Cl)[C@]2(Cl)[C@@H]3[C@@H]4C[C@@H]([C@H]5O[C@@H]45)[C@@H]3[C@@]1(Cl)C2(Cl)Cl : call = ?
Return: inactive
